# System: OVCAR-3 ovarian
# assayDetails: NCI tumour cell line growth inhibition, 48 h
I'd be grateful if you could share measured TGI for these entries.

Consider the compound CC1CC(=O)Nc2ccc(Cl)cc2N1C(=O)CN1CCC(CCCCN(C)C)CC1 (centres undefined) and give its measured TGI. > 100 µM

Next up: C[C@@H]1CC[C@H]2[C@@H](C)C(O)O[C@@H]3O[C@]4(C)CC[C@@H]1[C@]32OO4 (some centres undefined) 15.6 µM

What do you get for O=C(O)c1cc(N=Nc2ccc([N+](=O)[O-])cc2)ccc1O ? 39.8 µM

Also check CC1=C(C(=O)NNC(=O)Cc2ccccc2)CC(C(=O)NNC(=O)Cc2ccccc2)=C(C)N1 > 100 µM

Another compound to check: Nc1cn(C2OC(CC(c3ccccc3)(c3ccccc3)c3ccccc3)C(O)C2O)c(=O)[nH]c1=O (centres undefined) 37.9 µM

Param item: C=CC(=O)N[C@@H]1CN(c2nc(Nc3cn(C)nc3OC)c3ncn(C)c3n2)C[C@H]1F > 88 µM

Now consider CN1C(=O)N(C)C2(CCN(CC(CC3OCCO3)c3ccc(F)cc3)CC2)C1=O (centres undefined) . > 100 µM

Note, next up: C=CCn1c(-c2cc(C(C)(C)C)c(O)c(C(C)(C)C)c2)cs/c1=N\C(P(=O)(O)O)P(=O)(O)O > 100 µM

Param item: NC(Cc1ccc(O)cn1)C(=O)NC(C(=O)O)c1ccccc1 (centres undefined) > 100 µM
